testMethodNotes: Acute toxicity in po dosed rat
Assay type: organism-based
cond: in vivo
Parameter: LD50. Scope: all listed entries.
Express it in mg/kg; write the number only.

O=C(NCCO)c1ccc(Cl)cn1	3060
O=C(NCO)c1ccc(Cl)cc1	3000
NCCNC(=O)c1ccc(Cl)cc1	2810
O=C(NCO)c1ccc(Cl)cn1	3000

Now take the following compound into account.
Could you tell me which LD50 is on file for O=C(NCCO)c1ccc(Cl)cc1 ?
3090

###

Test system: Rattus norvegicus
testMethodNotes: In-vivo inhibition of MAO in rat assessed as dopamine level in brain at 20 mg/kg/day, po administered for 1 week measured post last dose by HPLC method (reference value: 0.459 +/- 0.07 ng/mg)
Format: functional
experimentalReadout: Activity
Answer with the number, then the unit.

Illustrative cases are given below, each with its answer.
NCCNC(=O)c1ccc(Cl)cc1	1.21 ng/mg
O=C(NCO)c1ccc(Cl)cc1	0.832 ng/mg
O=C(NCCO)c1ccc(Cl)cc1	1.51 ng/mg
O=C(NCCO)c1ccc(Cl)cn1	0.768 ng/mg

Notebook: pull reported Activity for Rattus norvegicus, entry O=C(NCO)c1ccc(Cl)cn1
0.667 ng/mg

Value source: ChEMBL document CHEMBL4229548
